// provenance: patent US9975882B2

For each entry below, report its pIC50 value.
molecular target: human recombinant Txk (full length, GST-tagged) (Homo sapiens (Human)); assay: TXK Z'-LYTE assay; settings: read-out: TXK IC50, 100 μM ATP;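 further: FRET read-out of kinase phosphorylation of a synthetic peptide labelled with Coumarin and Fluorescein, scored by protease sensitivity of unphosphorylated peptide, incubated at 22 °C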
Sequence (P42681 whole entry): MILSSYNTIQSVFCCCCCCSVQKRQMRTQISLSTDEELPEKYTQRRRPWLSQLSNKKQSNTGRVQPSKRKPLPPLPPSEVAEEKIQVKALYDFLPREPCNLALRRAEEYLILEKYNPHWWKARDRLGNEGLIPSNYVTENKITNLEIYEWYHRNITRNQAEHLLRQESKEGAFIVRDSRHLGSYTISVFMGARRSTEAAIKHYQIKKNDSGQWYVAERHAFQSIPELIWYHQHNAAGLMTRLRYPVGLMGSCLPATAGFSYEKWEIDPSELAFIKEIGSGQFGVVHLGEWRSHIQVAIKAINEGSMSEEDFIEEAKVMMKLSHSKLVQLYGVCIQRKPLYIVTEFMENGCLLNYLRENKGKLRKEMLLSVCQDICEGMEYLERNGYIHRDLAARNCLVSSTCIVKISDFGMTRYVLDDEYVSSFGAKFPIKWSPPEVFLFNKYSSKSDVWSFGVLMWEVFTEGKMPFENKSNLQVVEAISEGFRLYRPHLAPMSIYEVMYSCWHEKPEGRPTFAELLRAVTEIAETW
Give bare numbers, as −log10 of the molar value.

# count of solved cases: 3
[[record]]
compound = "CC#CC(=O)N1CC[C@]2(C1)C[C@H](n1nc(-c3cnn(Cc4cccc(C(F)(F)F)c4)c3)c(C(N)=O)c1NC)C2 [Example 23]"
target_entity = "human recombinant Txk (full length, GST-tagged) (Homo sapiens (Human))"
meas_value = 6.22

[[record]]
compound = "CC#CC(=O)N1CC[C@]2(C1)C[C@H](n1nc(-c3ccn(Cc4cccc(C(F)(F)F)c4)n3)c(C(N)=O)c1N)C2 [Example 25]"
target_entity = "human recombinant Txk (full length, GST-tagged) (Homo sapiens (Human))"
meas_value = 6.07

[[record]]
compound = "CC#CC(=O)N1CC[C@]2(C1)C[C@H](n1nc(-c3cnn(Cc4cccc(F)c4F)c3)c(C(N)=O)c1N)C2 [Example 59]"
target_entity = "human recombinant Txk (full length, GST-tagged) (Homo sapiens (Human))"
meas_value = 7.17


// for each compound in input: emit pIC50
1. CC#CC(=O)N1CC[C@]2(C1)C[C@H](n1nc(-c3cnn(Cc4cccc(C(F)(F)F)c4C)c3)c(C(N)=O)c1N)C2 [Example 6]
2. CC#CC(=O)N1CC[C@]2(C1)C[C@H](n1nc(-c3cnn(Cc4cc(F)ccc4Cl)c3)c(C(N)=O)c1N)C2 [Example 55]
3. CC#CC(=O)N1CC[C@]2(C1)C[C@H](n1nc(-c3cnn(Cc4ccccc4)c3)c(C(N)=O)c1N)C2 [Example 44]
4. CC#CC(=O)N1CC[C@]2(C1)C[C@H](n1nc(-c3cnn(Cc4ccccc4F)c3)c(C(N)=O)c1N)C2 [Example 60]
5. CC#CC(=O)N1CC[C@]2(C1)C[C@H](n1nc(-c3cnn(Cc4ccccc4C)c3)c(C(N)=O)c1N)C2 [Example 16]

Result:
1: 7.37; 2: 7.10; 3: 7.11; 4: 7.00; 5: 6.37
